biological target: T1, Recombinant human folate receptor alpha (FRα) (human, UniProt P15328 25-234); test: MST; serial dilutions of FITC conjugated C7 in PBS pH 7.4 mixed with purified FRα protein (1 μg/mL), 5 min at room temperature; Monolith NT.115, standard capillaries; KD from the Hill formula; settings: both partners purified
T1 construct: folate receptor alpha, human; also called recombinant folate receptor α; purified FRα protein; source: E. coli system, purified with a Ni-column
T1 sequence (P15328 25-234): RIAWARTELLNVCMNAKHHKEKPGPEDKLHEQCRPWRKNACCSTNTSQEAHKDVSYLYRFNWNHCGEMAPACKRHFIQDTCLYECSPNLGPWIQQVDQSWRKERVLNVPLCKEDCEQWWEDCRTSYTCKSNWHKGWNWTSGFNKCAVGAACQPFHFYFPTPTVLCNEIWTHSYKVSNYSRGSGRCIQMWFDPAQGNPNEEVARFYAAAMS
No end group written: not given here. *: point of attachment. FITC = O=C1OC2(c3ccc(O)cc3Oc3cc(O)ccc32)c2ccc(NC(=S)*)cc21
propertyLabel: pKd
pKd field: float, defined as -log10 of concentration (mol/L).

// query Item {FITC}-MHTAPGWGYRLS (dodecapeptide of phage clone C7, chemically synthesized; printed in three-letter code; also called C7 peptide; synthesized peptide C7; source: synthetic peptide (GL Biochem, Shanghai; HPLC, more than 95% purity)) [FITC conjugated peptide C7] has what recorded pKd?
// result 6.52
